Each recorded value in this set is attributed to PubChem BioAssay (NCI).

Tested on: HCT-15 colon
Assay: NCI-60 one-dose screen, 48 h
Settings: 10 µM unless noted
About 83,000 compounds went through this panel and 20% of them were active in at least one assay; those are over-represented in the sample as a whole. Active and inactive are the calls of the source. The calls were made as follows: active = growth percent below 10; inactive = the rest.
Give one outcome, nothing more. List: 1.0 (active), 0.0 (inactive)

Please review the entries below; each comes with its answer.
>>> answer_label("COc1ccc(CN2C(=O)/C(=C\\C(=O)c3ccc(OCCN4CCCCC4)cc3)c3ccccc32)cc1")
1.0
>>> answer_label("Cc1cc2c(-c3nc4ccccc4n3C)c(O)c(O)cc2c(O)c1-c1c(C)cc2c(-c3nc4ccccc4n3C)c(O)c(O)cc2c1O")
0.0

Kindly provide the recorded test outcome for the following compound: CC(=O)/C(=C/c1ccc(-c2ccccc2)cc1)C(=O)c1ccccc1
0.0
